Values from patent US20120245199A1

# Assay system: recombinant human beta tryptase (Homo sapiens)
# Sequence (Q15661 31-275): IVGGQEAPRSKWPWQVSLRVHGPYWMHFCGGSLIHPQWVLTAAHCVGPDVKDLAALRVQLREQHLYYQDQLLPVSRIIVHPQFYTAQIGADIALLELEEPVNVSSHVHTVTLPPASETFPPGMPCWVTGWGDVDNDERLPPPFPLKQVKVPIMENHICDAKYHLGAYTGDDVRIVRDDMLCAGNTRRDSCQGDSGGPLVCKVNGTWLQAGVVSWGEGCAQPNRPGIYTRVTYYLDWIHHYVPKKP
# Assay comment: beta-Tryptase inhibition, chromogenic enzyme assay (S2366 substrate)
# Cond: Ki calculated from IC50: Ki=IC50/(1+[Substrate]/Km), 0.5 mM S2366, room temperature
Structures can show the parent of a compound that is named as a salt.
Readings of pKi for the listed molecules
The meaning of pKi here: minus log10 of the concentration in molar units.

Look over these answered cases.
>  <Molecule>
COCCn1c(C(=O)N2CCC(c3cc(CN)ccc3F)CC2)cc2cnccc21 [Example 4, hydrochloride]

>  <Assay system>
recombinant human beta tryptase (Homo sapiens)

>  <pKi>
5.96

$$$$
>  <Molecule>
NCc1ccc(F)c(C2CCN(C(=O)c3cn(CCc4ccccc4)c4cccnc34)CC2)c1 [Example 16, dihydrochloride]

>  <Assay system>
recombinant human beta tryptase (Homo sapiens)

>  <pKi>
8.54

$$$$
>  <Molecule>
COCCn1c(C(=O)N2CCC(c3cccc(CN)c3)CC2)cc2cccnc21 [Example 3, dihydrochloride]

>  <Assay system>
recombinant human beta tryptase (Homo sapiens)

>  <pKi>
6.04

$$$$

Please list pKi recorded for the molecule NCc1ccc(F)c(C2CCN(C(=O)c3cn(CCN4CCCC4)c4cccnc34)CC2)c1 [Example 18, trihydrochloride]
6.56

State its pKi for this molecule: "COCCn1cc(C(=O)N2CCC(c3cc(CN)ccc3F)CC2)c2ccnc(C)c21"
7.60

Name the recorded pKi of the item NCc1ccc(F)c(C2CCN(C(=O)c3c[nH]c4ncccc34)CC2)c1 [Example 19, dihydrochloride] in your answer.
6.69

Supply reported pKi belonging to this molecule: COCCn1cc(C(=O)N2CCC(c3cc(CN)ccc3F)CC2)c2ccnc(Cl)c21 [Example 13, dihydrochloride]
7.60
